# assayedTarget: T1, MPP2, Q14168
# T1 sequence (Q14168 180-250, limits assumed, looked up): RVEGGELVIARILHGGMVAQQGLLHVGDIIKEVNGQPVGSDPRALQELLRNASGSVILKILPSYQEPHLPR
# protocolText: holdup assay
# Parameters: key: below the threshold = too weak to quantify, mostly under pKd 3.1 to 4
# experimentalContext: plain residues with an end cap or a label only (N-terminal biotin on a linker: ado-ado)
propertyName: pKd

Solved entries (count: 5):
binder	pKd
STKRKLASAV [NCF1, P14598]	below the threshold
DRIQSCLSDA [SBF1, O95248]	below the threshold
GIKKITSTAL [RPS6KA3, P51812]	below the threshold
TRKRSGEAAV [PFKM, P08237]	below the threshold
NVYGIESVKI [GRIA2, P42262]	below the threshold

Which pKd value is on record for AEASVACSLC [PTGIR, P43119] ?
below the threshold
